What protein stability index was measured for each of the following?
# Test system: Saccharomyces cerevisiae
# measurement notes: protein stability index of tFT-peptide fusion (C-terminal peptide) (PSI (0-1 scale)); higher = more stable (slower turnover)
# test conditions: genetic background: das1 deletion; temperature: 30 C
// no unit, no text: just the number

In: Requested field: protein stability index. Item: EFAKCEFETPAV [CKB1 C-terminal 12 aa]
Out: 0.722

In: Requested field: protein stability index. Item: FIKLSLASSFSN [ISF1 C-terminal 12 aa]
Out: 0.709

In: Requested field: protein stability index. Item: KSCGNNAGARIC [HO C-terminal 12 aa]
Out: 0.709

In: Requested field: protein stability index. Item: IKPSAEVHINAL [VMA10 C-terminal 12 aa]
Out: 0.686

In: Requested field: protein stability index. Item: VKKNKPSIESKC [GSH1 C-terminal 12 aa]
Out: 0.688

In: Requested field: protein stability index. Item: TDVKKFIHELCE [TRP3 C-terminal 12 aa]
Out: 0.69

In: Requested field: protein stability index. Item: TEKKINTRPPFR [DAM1 C-terminal 12 aa]
Out: 0.701

In: Requested field: protein stability index. Item: EASEPFKTFKNT [MMS22 C-terminal 12 aa]
Out: 0.724

In: Requested field: protein stability index. Item: RHHEQSHGQEDH [YLR361C-A C-terminal 12 aa]
Out: 0.699

In: Requested field: protein stability index. Item: KAAINQQSTPLN [RPH1 C-terminal 12 aa]
Out: 0.676

In: Requested field: protein stability index. Item: VESPTLFCVCTQ [YPR170C C-terminal 12 aa]
Out: 0.611

In: Requested field: protein stability index. Item: TFLYYYFPLPTN [YPL080C C-terminal 12 aa]
Out: 0.656

In: Requested field: protein stability index. Item: TKNTCIRRLSNQ [YLR031W C-terminal 12 aa]
Out: 0.709

In: Requested field: protein stability index. Item: TLKKRFGLVPGQ [NOP10 C-terminal 12 aa]
Out: 0.714

In: Requested field: protein stability index. Item: LADHLMEKYLSI [TFC4 C-terminal 12 aa]
Out: 0.701

In: Requested field: protein stability index. Item: YANLLYKFWNDQ [PCL7 C-terminal 12 aa]
Out: 0.735

In: Requested field: protein stability index. Item: NFFESYRTISCL [YPL038W-A C-terminal 12 aa]
Out: 0.641

In: Requested field: protein stability index. Item: EEKKKQEEGHSN [MNN4 C-terminal 12 aa]
Out: 0.699

In: Requested field: protein stability index. Item: PIIKEILQEYES [DNA2 C-terminal 12 aa]
Out: 0.691

In: Requested field: protein stability index. Item: VERNHPVITNIS [YCR087W C-terminal 12 aa]
Out: 0.711

In: Requested field: protein stability index. Item: PIKLKSDEEMII [YFL040W C-terminal 12 aa]
Out: 0.707

In: Requested field: protein stability index. Item: GTMKVDSWEPVD [ACH1 C-terminal 12 aa]
Out: 0.7

In: Requested field: protein stability index. Item: SETFATPTPNNR [SPC42 C-terminal 12 aa]
Out: 0.718

In: Requested field: protein stability index. Item: IDLSKKLSFYNY [GMH1 C-terminal 12 aa]
Out: 0.685

In: Requested field: protein stability index. Item: NKEYWMKHKKPQ [PDE2 C-terminal 12 aa]
Out: 0.688

In: Requested field: protein stability index. Item: MVKIRTKNDAKN [TAF2 C-terminal 12 aa]
Out: 0.707

In: Requested field: protein stability index. Item: ATGGKKTTFADE [RPA14 C-terminal 12 aa]
Out: 0.711

In: Requested field: protein stability index. Item: KGARSRFQKSYR [RPS16A C-terminal 12 aa]
Out: 0.707

In: Requested field: protein stability index. Item: SLSARKINMRKV [KRE9 C-terminal 12 aa]
Out: 0.705

In: Requested field: protein stability index. Item: LKKPRSGFHVIV [YFR006W C-terminal 12 aa]
Out: 0.69

In: Requested field: protein stability index. Item: QTQLCKRKKKLT [VIK1 C-terminal 12 aa]
Out: 0.687

In: Requested field: protein stability index. Item: KVKCALERKPYL [ZAP1 C-terminal 12 aa]
Out: 0.706

In: Requested field: protein stability index. Item: SKPALGTCLYEQ [GAL3 C-terminal 12 aa]
Out: 0.676

In: Requested field: protein stability index. Item: HLAQMKMEQLLK [APQ12 C-terminal 12 aa]
Out: 0.678

In: Requested field: protein stability index. Item: FGNDMVINFETD [UTP22 C-terminal 12 aa]
Out: 0.744

In: Requested field: protein stability index. Item: LELLLAADYLSI [ELC1 C-terminal 12 aa]
Out: 0.698

In: Requested field: protein stability index. Item: IADELDWLKFGI [GLN3 C-terminal 12 aa]
Out: 0.906

In: Requested field: protein stability index. Item: RSRKNEGSYLMH [HMT1 C-terminal 12 aa]
Out: 0.697

In: Requested field: protein stability index. Item: LYELKGLLGNDS [INP2 C-terminal 12 aa]
Out: 0.681

In: Requested field: protein stability index. Item: PSYAVCDNILVT [YOL013W-B C-terminal 12 aa]
Out: 0.67

In: Requested field: protein stability index. Item: LYAFHQVGIHFS [DIM1 C-terminal 12 aa]
Out: 0.709

In: Requested field: protein stability index. Item: QKKEEAKHKASE [UFD2 C-terminal 12 aa]
Out: 0.711

In: Requested field: protein stability index. Item: DDAVNCNTSNCL [ZRC1 C-terminal 12 aa]
Out: 0.703

In: Requested field: protein stability index. Item: VISLAAQSKYVQ [MCO6 C-terminal 12 aa]
Out: 0.693

In: Requested field: protein stability index. Item: GRVDFQSTSKFT [AIM24 C-terminal 12 aa]
Out: 0.702

In: Requested field: protein stability index. Item: IPMTLTTLSTVF [UPA2 C-terminal 12 aa]
Out: 0.619

In: Requested field: protein stability index. Item: NDINNSRPITRK [ARO80 C-terminal 12 aa]
Out: 0.682

In: Requested field: protein stability index. Item: MDDEFVSGRFEI [SCH9 C-terminal 12 aa]
Out: 0.717

In: Requested field: protein stability index. Item: ERLRFYKDTFTL [RRI1 C-terminal 12 aa]
Out: 0.726

====

# System: Saccharomyces cerevisiae
# measurement notes: protein stability index of tFT-peptide fusion (C-terminal peptide) (PSI (0-1 scale)); higher = more stable (slower turnover)
# test conditions: genetic background: das1 deletion; temperature: 37 C
// map protein stability index onto a label; ranges small value: < 0.5; mid value: ≥ 0.5 and < 0.7; large value: ≥ 0.7

In: Which category fits this record: GGWSFSSLWKIA
Out: large value

In: Which category fits this record: LVCSLLVPSSFF
Out: large value

In: Which category fits this record: CYCSIGCLIIFS
Out: small value

In: Which category fits this record: SVRGGSFLVHLC
Out: large value

In: Which category fits this record: PVTAVYFVLYIW
Out: small value

In: Which category fits this record: DVRLVLCEMIKG
Out: mid value

In: Which category fits this record: TRPHPLRRVFIF
Out: large value

In: Which category fits this record: GFCFVFVFQCFF
Out: small value

In: Which category fits this record: VTGYLSTLTMLC
Out: mid value

In: Which category fits this record: LVVFLRFFLRVL
Out: small value

In: Which category fits this record: GPPVPLSPPLSP
Out: mid value

In: Which category fits this record: LVVGCFLTFCFG
Out: small value

In: Which category fits this record: ESVPLLIVLHLV
Out: mid value

In: Which category fits this record: LIIVFGFTSILR
Out: mid value

====

# Tested on: Saccharomyces cerevisiae
# measurement notes: protein stability index of tFT-peptide fusion (C-terminal peptide) (PSI (0-1 scale)); higher = more stable (slower turnover)
# test conditions: genetic background: das1 deletion; temperature: 30 C
What protein stability index was measured for each of the following?
// no unit, no text: just the number

In: # value lookup — system Saccharomyces cerevisiae, readout protein stability index, item FLCWLSFIPLLS
Out: 0.293

In: # value lookup — system Saccharomyces cerevisiae, readout protein stability index, item GSLGHCWFLFGV
Out: 0.539

In: # value lookup — system Saccharomyces cerevisiae, readout protein stability index, item RERRISRIPCLS
Out: 0.526

In: # value lookup — system Saccharomyces cerevisiae, readout protein stability index, item GGRHYGILDLSL
Out: 0.677

In: # value lookup — system Saccharomyces cerevisiae, readout protein stability index, item PPRPLHPPCRPP
Out: 0.66

In: # value lookup — system Saccharomyces cerevisiae, readout protein stability index, item VCLFSVCLWFVS
Out: 0.16

In: # value lookup — system Saccharomyces cerevisiae, readout protein stability index, item LSSIIRFLIFCL
Out: 0.495

In: # value lookup — system Saccharomyces cerevisiae, readout protein stability index, item CREFLQSMLFYC
Out: 0.645

In: # value lookup — system Saccharomyces cerevisiae, readout protein stability index, item QYRLMQKKIVNI
Out: 0.647

In: # value lookup — system Saccharomyces cerevisiae, readout protein stability index, item VGYSLFTFLFCA
Out: 0.481

In: # value lookup — system Saccharomyces cerevisiae, readout protein stability index, item CPYSNAFALCVF
Out: 0.22

In: # value lookup — system Saccharomyces cerevisiae, readout protein stability index, item FFALFLPLACFC
Out: 0.38

In: # value lookup — system Saccharomyces cerevisiae, readout protein stability index, item FFGVFIFPVSCR
Out: 0.204

In: # value lookup — system Saccharomyces cerevisiae, readout protein stability index, item FFCSILLGIILL
Out: 0.364

In: # value lookup — system Saccharomyces cerevisiae, readout protein stability index, item CVVLCLFCWCML
Out: 0.314

In: # value lookup — system Saccharomyces cerevisiae, readout protein stability index, item VLVRVIYLLVSG
Out: 0.23

In: # value lookup — system Saccharomyces cerevisiae, readout protein stability index, item LERLHSVLLLTS
Out: 0.223

In: # value lookup — system Saccharomyces cerevisiae, readout protein stability index, item YFLFRYIVITVF
Out: 0.0711

In: # value lookup — system Saccharomyces cerevisiae, readout protein stability index, item RFRFRRTCLYAT
Out: 0.501
